- system: NADH:ubiquinone oxidoreductase (Complex I) (Bos taurus, UniProt P03887+P17694+P42026)
- Sequence (P03887 whole entry): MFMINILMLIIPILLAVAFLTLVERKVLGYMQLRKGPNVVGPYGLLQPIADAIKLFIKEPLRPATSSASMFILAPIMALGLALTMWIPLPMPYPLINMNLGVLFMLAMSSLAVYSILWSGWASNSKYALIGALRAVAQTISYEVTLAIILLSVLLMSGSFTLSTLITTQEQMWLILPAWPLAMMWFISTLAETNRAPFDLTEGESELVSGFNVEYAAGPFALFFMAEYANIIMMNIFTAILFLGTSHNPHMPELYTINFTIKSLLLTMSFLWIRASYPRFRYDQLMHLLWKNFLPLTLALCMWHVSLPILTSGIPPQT
- Sequence (P42026 38-216): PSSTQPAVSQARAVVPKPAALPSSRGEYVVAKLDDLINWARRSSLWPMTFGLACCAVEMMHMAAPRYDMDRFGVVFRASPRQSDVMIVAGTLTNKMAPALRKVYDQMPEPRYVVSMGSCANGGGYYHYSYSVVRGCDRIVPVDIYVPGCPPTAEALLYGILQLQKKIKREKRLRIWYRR
- Sequence (P17694 34-463): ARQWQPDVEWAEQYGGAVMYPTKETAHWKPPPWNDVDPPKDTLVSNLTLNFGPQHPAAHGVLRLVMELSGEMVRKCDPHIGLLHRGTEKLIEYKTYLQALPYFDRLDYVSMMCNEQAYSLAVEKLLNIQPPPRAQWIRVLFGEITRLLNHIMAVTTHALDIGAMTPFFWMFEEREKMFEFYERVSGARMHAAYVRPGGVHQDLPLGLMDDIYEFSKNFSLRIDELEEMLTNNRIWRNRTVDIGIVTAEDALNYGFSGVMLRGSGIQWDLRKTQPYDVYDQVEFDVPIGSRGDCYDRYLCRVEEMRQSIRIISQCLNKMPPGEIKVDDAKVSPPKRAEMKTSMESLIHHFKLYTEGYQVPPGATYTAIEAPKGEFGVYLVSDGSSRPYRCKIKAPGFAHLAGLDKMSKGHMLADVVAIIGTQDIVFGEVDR
- assay explanation: inhibitory potency for NADH:ubiquinone oxidoreductase activity in vitro using bovine heart electron transport particles
- measurement context: bovine heart electron transport particles
pIC50: −log10 of the molar value.
Class criterion met: pIC50 at least 7. Class criterion not met: pIC50 below 7.

C=C(Cc1cc(OC)c(OC)c(OC)c1)c1ccc2c(c1)C=CC(C)(C)O2 [Compound 163]; criterion met
COc1cc(CC(=O)c2ccc3c(c2)CCC(C)(C)O3)cc(OC)c1OC [Compound 165]; criterion met
C=C(Cc1cc(OC)c(OC)c(OC)c1)c1ccc2c(c1)CCC(C)(C)O2 [Compound 167]; criterion met
COc1cc(CC(=C(Cl)Cl)c2ccc3c(c2)CCC(C)(C)O3)cc(OC)c1OC [Compound 168]; criterion not met

Quick check: does COc1cc(CC(=O)c2ccc3c(c2)C=CC(C)(C)O3)cc(OC)c1OC [Compound 158] have pIC50 greater than or equal to 7?
criterion met

Now consider COc1ccc(COC(=O)c2ccc3c(c2)C=CC(C)(C)O3)cc1OC [Compound 42] .
criterion not met

----------
- system: NADH:ubiquinone oxidoreductase (Complex I) (Bos taurus, UniProt P03887+P17694+P42026)
- assay explanation: inhibitory potency for NADH:ubiquinone oxidoreductase activity in vitro using bovine heart electron transport particles
- measurement context: bovine heart electron transport particles
quantity: pIC50
Keep in mind that pIC50 stands for -log10 of concentration in molar terms.

Recorded pIC50 for COc1cc(COC(=O)c2ccc3c(c2)C=CC(C)(C)O3)cc(OC)c1OC [Compound 55] , please?
7.26

----------
- system: NADH:ubiquinone oxidoreductase (Complex I) (Bos taurus, UniProt P03887+P17694+P42026)
- assay explanation: inhibitory potency for NADH:ubiquinone oxidoreductase activity in vitro using bovine heart electron transport particles
- measurement context: bovine heart electron transport particles
quantity: IC50 (nM)
API: value field is a number in nM; no unit string.

COc1cc(CC(=C(F)F)c2ccc3c(c2)CCC(C)(C)O3)cc(OC)c1OC; 48
COc1cc(COC(=O)c2ccc3c(c2)CCC(C)(C)O3)cc(OC)c1OC; 53

Field: next compound
Recorded IC50 for COc1cc(CSc2ccc3c(c2)C=CC(C)(C)O3)cc(OC)c1OC , please?
43
